Molecular target: NO synthase (Rattus norvegicus)
Construct: the supernatant was then removed by decantation and frozen in portions at −80° C; from tissue; host or cells: rat cerebellum, 20,000 g supernatant of homogenate
Assay: HTS-NOS assay (NOS assay): conversion of radioactive arginine, cation-exchanger filter plate
Assay type: biochemical
Settings: 10 μM
Would you mind telling me the reported HTS-NOS assay: % inhibition (10 μM) of each entry?

Item under review: CC(=O)N(c1c(C)cccc1C)c1c(-c2ccccc2C(F)(F)F)nc2ccc(C)cn12 [Example 261] . Reported HTS-NOS assay: % inhibition (10 μM)?
61%

Entry CC(=O)N(c1c(-c2ccccc2C(F)(F)F)nc2cc(C)ccn12)C1CCCCC1 [Example 164] please
61%

Entry [C-]#[N+]CCCCCCN(C(C)=O)c1c(-c2cccnc2)nc2cc(C)cc(C)n12 [Example 232] please
59%

Entry Cc1ccn2c(NC(C)(C)CC(C)(C)C)c(-c3ccc(CO)o3)nc2c1 [Example 102] please
59%
